Assay: chemical genetic growth profiling, strain panel (AID 1159580);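 note: tested at 20 µM; growth read once vehicle control cultures reached saturation at 30 °C; lower values mean less growth of the strain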
Conditions: S. cerevisiae deletion strains, growth OD, locus YCL061C, strain MRC1
Screen size: about 5,500 compounds; about 2,000 (36%) were called active. Not shown: some 18% with an inconclusive outcome. Cut-off read from the data, not from the text of the source: active = normalized growth mostly below about 0.91 (no sharp cut-off); inconclusive = no clear call, values can overlap the other calls; inactive = mostly above about 0.92. The list shows a part of the results.
A correct response names exactly one class from active, inactive

// known answers, use as guide
* COc1ccc(OCC(N)=O)cc1 | inactive
* COc1ccc(C=Nc2ccc(O)cc2)cc1 | inactive
* Cc1cscc1S(=O)(=O)c1ccc(Cl)cc1 | inactive

Query :: Recorded test outcome, item "CN(C)CCOC(=O)COc1ccc(Cl)cc1"
Result :: inactive

Query :: Repeat with COC(=O)CCC(C)C1CCC2C3CC[C@@H]4C[C@H](O)CC[C@]4(C)C3C[C@H](O)[C@]12C (some centres not stated)
Result :: inactive

Query :: Now consider "CNCCCN1c2ccccc2CCc2ccccc21" and answer again.
Result :: inactive

Query :: Same read-out for "CCCC(CCC)C(=O)O" ?
Result :: inactive

Query :: Thanks! And "c1ccc2c(c1)CN1CCCC1=N2" ?
Result :: inactive

Query :: Then this compound: "O=c1cc(-c2ccccc2)oc2cccc(O)c12"
Result :: inactive
